All figures here come from patent US8124742.

Target: T1, human Rh(D) antigen on Rh(D)-positive red blood cells (human, UniProt Q02161 2-417)
T1 construct: whole, on cells; also called wt; wild type Rh(D)
T1 sequence (looked up): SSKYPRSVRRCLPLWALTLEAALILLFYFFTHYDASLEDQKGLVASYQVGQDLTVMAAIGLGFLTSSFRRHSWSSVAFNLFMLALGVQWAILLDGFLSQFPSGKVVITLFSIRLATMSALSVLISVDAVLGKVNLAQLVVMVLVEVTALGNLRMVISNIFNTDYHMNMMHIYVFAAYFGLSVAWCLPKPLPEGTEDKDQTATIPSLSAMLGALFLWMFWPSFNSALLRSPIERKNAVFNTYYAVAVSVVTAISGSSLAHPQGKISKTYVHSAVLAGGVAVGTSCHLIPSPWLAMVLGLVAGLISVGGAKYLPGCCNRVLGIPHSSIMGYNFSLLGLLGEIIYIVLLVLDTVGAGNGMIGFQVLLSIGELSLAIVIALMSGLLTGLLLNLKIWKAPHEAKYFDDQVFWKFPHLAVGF
Experiment: agglutination, anti-M13

| BINDER | binding result |
| --- | --- |
| SH24 (Fab, V domains shown, Fab on M13 phage) VH: EVQLLESGGGVAQPGRSLRLSCVASGFSLRSYGMHWVRQAPGKGLEWVADIWFDGSNKDYADSVKGRFTISRDNSKNTLYLQMNSLRAEDTAVYYCARDWRVRAFSSGWLSAFDIWGQGTMVTVSS VL: AELTQSPSSLSASVGDRVTITCRASQSISTYLNWYQQRPGKAPNLLIYAASTLQRGVPSRFTGSGSGTDFTLTISSLQPEDFATYYCQQSYTTLWTFGQGTKMEIRR | binds |
| SH53 (Fab, V domains shown, Fab on M13 phage) VH: EVQLLESGGGGVQPGRSLRLSCAASGFTFNSYAMYWVRQPPGKGLEWVAAIWYDGSNKEYADFVKGRFTISRDNSKNTLSLQMNSLRDEDTAVYYCAREANLLRGWSRYYYGMDVWGQGTTVTVSS VL: AELQDPVVSVALGQTVRITCQGDGLRSYYASWYQQKPGQAPKLVMYGRNNRPSGIPGRFSGSSSGQTAALTITGTQAEDEADYYCQSRATSGNPVVFGGGTKLTVL | binds |
| SH55 (Fab, V domains shown, Fab on M13 phage) VH: EVQLLESGGGVVQPGRSLRLSCVVSGFTFNNYGMHWVRQAPGKGLEWVAVIWFDGSNKYYADSVKGRFTISRDNSKNTLYLQMNSLRAEDTAVYYCARENQIKLWSRYLYYFDYWGQGTLVTVSS VL: AELTQPPSASGTPGQRVTISCSGSSSNIGSKYVYWYQQLPGTAPKLLIYSNNQRPSGVPDRFSAFKSGTSASLAITGLQAEDEANYYCQSYDSGLSGWVFGGGTKLTVL | binds |
